- target: 5-lipoxygenase (Rattus norvegicus, UniProt P12527)
- Construct: endogenous in cells
- Sequence (P12527 whole entry): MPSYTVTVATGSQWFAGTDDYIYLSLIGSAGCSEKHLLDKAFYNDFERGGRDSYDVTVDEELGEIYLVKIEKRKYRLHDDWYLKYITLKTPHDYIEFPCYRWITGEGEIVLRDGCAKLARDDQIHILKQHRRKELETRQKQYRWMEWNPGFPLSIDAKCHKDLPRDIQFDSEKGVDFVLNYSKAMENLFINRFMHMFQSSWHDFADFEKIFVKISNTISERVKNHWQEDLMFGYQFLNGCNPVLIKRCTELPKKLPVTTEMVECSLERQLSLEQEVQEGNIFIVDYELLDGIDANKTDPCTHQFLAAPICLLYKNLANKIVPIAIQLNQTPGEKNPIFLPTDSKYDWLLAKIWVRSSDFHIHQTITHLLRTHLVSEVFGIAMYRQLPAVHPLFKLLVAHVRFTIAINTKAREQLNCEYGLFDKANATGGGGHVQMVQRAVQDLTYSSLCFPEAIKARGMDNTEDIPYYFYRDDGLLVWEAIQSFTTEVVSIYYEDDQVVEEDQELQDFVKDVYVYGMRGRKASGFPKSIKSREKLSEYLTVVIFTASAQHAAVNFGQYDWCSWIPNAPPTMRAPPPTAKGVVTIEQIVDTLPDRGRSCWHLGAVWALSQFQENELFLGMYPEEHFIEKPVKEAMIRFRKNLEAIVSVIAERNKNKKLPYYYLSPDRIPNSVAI
- assay-text: 5-lipoxygenase activity (LTB4 in A23187-stimulated peritoneal neutrophils)
Listed next: entries and their corresponding IC50.
Hi! Could you send only the number? It should be in µM, unit omitted.

Some molecules with known IC50 results, for comparison:
{"columns": ["molecule", "unit-abbrev", "IC50"],
 "data": [
  ["COc1ccc(-c2cc(=O)c3c(OC)c(OC)c(OCC(=O)O)cc3o2)cc1OC", "µM", 140],
  ["COc1ccc(-c2cc(=O)c3c(OC)cc(OCC(=O)O)cc3o2)cc1OC", "µM", 35.5],
  ["CCCCOc1c(OCC(=O)O)cc2oc(-c3ccc(OC)c(OC)c3)cc(=O)c2c1O", "µM", 26.3],
  ["CCCCCOc1cc2c(=O)cc(-c3ccc(OC)c(OC)c3)oc2cc1OCC(=O)O", "µM", 2.8]
]}

Switching to the query record.
[in] Find the recorded IC50 belonging to COc1ccc(-c2cc(=O)c3c(O)c(OC)c(O)cc3o2)cc1OC [5,7-dihydroxy-3',4',6-trimethoxy flavone] and report it.
[out] 13.1

====

- Tested on: gastric mucosal damage induced by ethanolic HCl
- assay-text: Gastritis model induced with ethanolic-HCl
- Type: in vivo, SD male rat
- measurement-conditions: po, 1 h; 0.3 mg/kg p.o., rat
# reported inhibition in vivo at 0.3 mg/kg; entries follow
Write the number in % without appending the unit.

Please review the following examples before continuing.
{"columns": ["compound", "inhibition in vivo at 0.3 mg/kg [%]"],
 "data": [
  ["COc1ccc(-c2cc(=O)c3cc(OC)c(OCC(=O)O)cc3o2)cc1OC", 30],
  ["COc1ccc(-c2cc(=O)c3c(O)c(OC)ccc3o2)cc1OC [5-hydroxy-3',4',6-trimethoxy flavone]", 38]
]}

[in] Reported inhibition in vivo at 0.3 mg/kg, compound COc1ccc(-c2cc(=O)c3c(OC)cc(OCCO)cc3o2)cc1OC : ____
[out] 0

[in] Tell me the measured inhibition in vivo at 0.3 mg/kg of COc1ccc(-c2cc(=O)c3c(OC)cc(OCC(=O)O)cc3o2)cc1OC , please.
[out] 58

[in] # query: inhibition in vivo at 0.3 mg/kg of entry COc1ccc(-c2cc(=O)c3c(OC)c(OC)c(OCCO)cc3o2)cc1OC
[out] 43

[in] # inhibition in vivo at 0.3 mg/kg lookup, item COc1ccc(C2CC(=O)c3c(cc(OCC(=O)O)c(OC)c3O)O2)cc1OC (stereo not drawn)
[out] 0

[in] Returns the measured inhibition in vivo at 0.3 mg/kg for the input compound. Input: COc1ccc(-c2cc(=O)c3c(O)c(OC)c(OCC(=O)O)cc3o2)cc1OC
[out] 16

====

- Tested on: cyclooxygenase
- assay-text: Cyclooxygenase activity in HUVEC (PGF1 α synthesis)
- Type: cell-based
The entries below are paired with their reported SC200, concentration increasing generation of PGF1α to 200%.
Output spec: scalar in µg/mL, unitless text.

Examples from the recorded data:
{"columns": ["compound", "unit-abbrev", "assay-result"],
 "data": [
  ["COc1ccc(C2CC(=O)c3c(cc(O)c(OC)c3O)O2)cc1OC (stereo not drawn)", "µg/mL", 34.6],
  ["COc1ccc(-c2cc(=O)c3c(O)c(OC)c(OCC(=O)O)cc3o2)cc1OC", "µg/mL", 18.41],
  ["COc1ccc(-c2cc(=O)c3c(O)c(OC)c(O)cc3o2)cc1OC [5,7-dihydroxy-3',4',6-trimethoxy flavone]", "µg/mL", 3.4],
  ["CCCCOc1c(OCC(=O)O)cc2oc(-c3ccc(OC)c(OC)c3)cc(=O)c2c1O", "µg/mL", 2.41],
  ["COc1ccc(-c2cc(=O)c3c(OC)cc(OCC(=O)O)cc3o2)cc1OC", "µg/mL", 14.35]
]}

[in] // returns reported SC200, concentration increasing generation of PGF1α to 200% for input COc1ccc(-c2cc(=O)c3c(OC)c(OC)c(OCC(=O)O)cc3o2)cc1OC
[out] 11.09
